# METHOD SUMMARY: Delta Logarithm of Partition Coefficient value was determined.
# CONDITION DESCRIPTION: octanol/water
ATTRIBUTE MEASURED: delta Log P
API note: the answer field is a bare number with no unit suffix.

Answered cases to consult:
>>> df
                            chemical_smiles  test_value
0  COc1cc(C(c2c(O)c3ccccc3oc2=O)c2c(O)c3ccccc3oc2=O)ccc1O        1.05
1  CN(C)c1ccc(C(c2c(O)oc3ccccc3c2=O)c2c(O)oc3ccccc3c2=O)cc1        1.88

input: Entry O=c1c(C(c2ccc(C(c3c(O)oc4ccccc4c3=O)c3c(O)oc4ccccc4c3=O)cc2)c2c(O)oc3ccccc3c2=O)c(O)oc2ccccc12 has what delta Log P?
output: 2.84

input: Tell me the measured delta Log P of O=c1c(C(c2ccco2)c2c(O)oc3ccccc3c2=O)c(O)oc2ccccc12 , please.
output: 0.45

input: Which value of delta Log P has been reported for O=c1c(C(c2ccc(OCc3ccccc3)cc2)c2c(O)oc3ccccc3c2=O)c(O)oc2ccccc12 in the records?
output: 3.06

input: What value of delta Log P has been reported for the following molecule? O=c1c(C(c2cc(OCc3ccccc3)cc(OCc3ccccc3)c2)c2c(O)oc3ccccc3c2=O)c(O)oc2ccccc12
output: 5.15

input: Endpoint output: delta Log P of O=c1c(C(c2ccc(/C=C/c3ccccc3)cc2)c2c(O)oc3ccccc3c2=O)c(O)oc2ccccc12 . Value?
output: 4.14

input: Return reported delta Log P; argument: O=c1c(C(c2ccc([N+](=O)[O-])cc2)c2c(O)oc3ccccc3c2=O)c(O)oc2ccccc12
output: 1.37

----------
# ASSAYED TARGET: Human immunodeficiency virus type 1 integrase (Human immunodeficiency virus 1, UniProt Q7ZJM1)
# Sequence (Q7ZJM1 whole entry): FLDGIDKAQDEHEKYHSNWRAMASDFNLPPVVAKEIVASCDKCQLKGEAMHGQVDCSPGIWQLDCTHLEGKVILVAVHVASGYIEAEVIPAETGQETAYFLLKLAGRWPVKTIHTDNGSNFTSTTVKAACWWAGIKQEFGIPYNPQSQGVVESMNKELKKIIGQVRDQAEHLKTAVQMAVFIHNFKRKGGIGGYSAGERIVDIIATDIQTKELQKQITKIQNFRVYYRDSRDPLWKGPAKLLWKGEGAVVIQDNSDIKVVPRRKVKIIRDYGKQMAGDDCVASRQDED
# METHOD SUMMARY: Inhibitory activity against 3'-processing of DNA by HIV-1 integrase
Listed here: items and their measured pIC50.
Formally, pIC50 is defined as -log10 of the concentration c, with c in mol/L.

>>> print(df.to_string())
                            chemical_smiles  attribute_measured  test_value
0  O=c1c(C(c2cccnc2)c2c(O)oc3cc(O)ccc3c2=O)c(O)oc2cc(O)ccc12               pIC50        4.05

input: Dear colleague, I am looking for the recorded pIC50 of the following compound: O=c1c(C(c2ccccn2)c2c(O)oc3cc(O)ccc3c2=O)c(O)oc2cc(O)ccc12
output: 4.09

----------
# METHOD SUMMARY: Delta Logarithm of Partition Coefficient value was determined.
# CONDITION DESCRIPTION: octanol/water
delta Log P: recorded values
Lab note: jot down the number only; don't add units.

Solved cases (4 shown):
>>> print(df.to_string())
                            chemical_smiles  test_value
0  O=c1c(C(c2ccc(-c3ccccc3)cc2)c2c(O)oc3ccccc3c2=O)c(O)oc2ccccc12        3.33
1  O=c1c(C(c2ccc3c(c2)Cc2ccccc2-3)c2c(O)oc3ccccc3c2=O)c(O)oc2ccccc12         3.4
2  O=c1c(C(c2ccc(O)cc2)c2c(O)oc3ccccc3c2=O)c(O)oc2ccccc12         1.1
3  O=c1c(C(c2ccc3ccccc3c2)c2c(O)oc3ccccc3c2=O)c(O)oc2ccccc12         2.6

input: Please look up its delta Log P: O=c1c(C(c2ccccc2)c2c(O)oc3ccccc3c2=O)c(O)oc2ccccc12
output: 1.6

input: For O=c1c(C(c2cnc3ccccc3c2)c2c(O)oc3ccccc3c2=O)c(O)oc2ccccc12 , what is its reported delta Log P?
output: 1.6

input: What measured delta Log P goes with O=c1c(C(c2cccs2)c2c(O)oc3ccccc3c2=O)c(O)oc2ccccc12 ?
output: 0.86

----------
# ASSAYED TARGET: Human immunodeficiency virus type 1 integrase (Human immunodeficiency virus 1, UniProt Q7ZJM1)
# METHOD SUMMARY: Integration of DNA by HIV -1 integrase
# note: boundary value 40 µM maps to NO; IC50 below it maps to YES

>>> df
                                   molecule  category_label
0  O=c1c(C(c2ccc(/C=C/c3ccccc3)cc2)c2c(O)oc3cc(O)ccc3c2=O)c(O)oc2cc(O)ccc12             YES
1  O=c1c(C(c2ccccc2)c2c(O)oc3cc(O)ccc3c2=O)c(O)oc2cc(O)ccc12             YES
2  O=c1c(Cc2ccc(Cc3c(O)oc4ccccc4c3=O)cc2)c(O)oc2ccccc12              NO
3  O=c1c(C(c2ccc3ccccc3c2)c2c(O)oc3cc(O)ccc3c2=O)c(O)oc2cc(O)ccc12             YES
4  O=c1oc2ccccc2c(O)c1C1c2c(c3ccccc3oc2=O)Oc2c1c(=O)oc1ccccc21             YES

input: # strict comparison: is reported IC50 < 40 µM? input = O=c1oc2ccccc2c(O)c1Cc1c(O)c2ccccc2oc1=O [DICUMAROL]
output: NO

input: Field: below-cutoff. Rule: recorded IC50 strictly less than 40 µM. Subject: O=c1cc(O)c2ccc(O)cc2o1
output: NO

----------
# ASSAYED TARGET: Human immunodeficiency virus type 1 integrase (Human immunodeficiency virus 1, UniProt Q7ZJM1)
# METHOD SUMMARY: Integration of DNA by HIV -1 integrase
Listing of entries alongside the reported IC50.
Your answer is read as µM, so omit the unit and give the number.

// known answers, use as guide
>>> df
                            chemical_smiles  unit_tag  test_value
0  O=c1c(C(c2ccccc2)c2c(O)oc3ccccc3c2=O)c(O)oc2ccccc12        µM        38.8
1  O=c1c(Cc2c(O)oc3cc(O)ccc3c2=O)c(O)oc2cc(O)ccc12        µM        44.9

input: GET /values?readout=IC50&item= O=c1c(C(c2ccc(C(c3c(O)oc4cc(O)ccc4c3=O)c3c(O)oc4cc(O)ccc4c3=O)cc2)c2c(O)oc3cc(O)ccc3c2=O)c(O)oc2cc(O)ccc12
output: 0.33
